- ASSAYED_TARGET: human recombinant D3 receptor (Homo sapiens (Human), UniProt P35462)
- Sequence (P35462 whole entry): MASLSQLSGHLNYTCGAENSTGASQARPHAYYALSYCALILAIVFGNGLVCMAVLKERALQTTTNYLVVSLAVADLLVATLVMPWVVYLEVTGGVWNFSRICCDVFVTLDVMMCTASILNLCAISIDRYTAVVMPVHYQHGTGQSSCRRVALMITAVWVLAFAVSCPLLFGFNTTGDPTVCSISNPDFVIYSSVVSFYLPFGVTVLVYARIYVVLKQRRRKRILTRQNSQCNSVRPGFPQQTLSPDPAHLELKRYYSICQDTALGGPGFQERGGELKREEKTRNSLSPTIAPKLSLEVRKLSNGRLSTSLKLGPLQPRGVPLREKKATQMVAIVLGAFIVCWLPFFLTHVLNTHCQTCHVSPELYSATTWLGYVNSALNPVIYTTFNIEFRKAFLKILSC
- PROTOCOL_NOTES: Test of binding inhibition for dopamine D3 receptor
- ASSAY_CONDITIONS: Jump-In HEK cell membranes, 2 nM [3H]-Methylspiperone, 120 min at 25° C.; read-out: hD3_Ki
pKi: −log10 of the molar value.
Listing: pKi of selected compounds
MEASURED_PROPERTY: pKi

1) Cc1cnc(CC(=O)N[C@H]2CC[C@H](CCN3C[C@@H]4C[C@]4(c4cc(C(C)(F)F)on4)C3)CC2)o1 : 9.25
2) Cc1cc(C23CC2CN(CC[C@H]2CC[C@H](NC(=O)c4cccc5nn(C)cc45)CC2)C3)no1 (stereo partly shown) : 8.54
3) CCc1cc([C@]23C[C@H]2CN(CC[C@H]2CC[C@H](NC(=O)Cc4cnc(C)o4)CC2)C3)no1 : 9.24
4) CCc1cc([C@]23C[C@H]2CN(CC[C@H]2CC[C@H](NC(=O)COc4cnn(C)c4)CC2)C3)no1 : 9.15
5) CCc1cc([C@]23C[C@H]2CN(CC[C@H]2CC[C@H](NC(=O)Cc4noc(C)n4)CC2)C3)no1 : 8.89
6) Cc1cc(CC(=O)N[C@H]2CC[C@H](CCN3C[C@@H]4C[C@]4(c4cc(C(C)(F)F)on4)C3)CC2)on1 : 10.21
7) CCc1cc([C@]23C[C@H]2CN(CC[C@H]2CC[C@H](NC(=O)Cc4ncc(C)o4)CC2)C3)no1 : 8.92

----------
Listing: pKi of selected compounds
- ASSAYED_TARGET: human recombinant D3 receptor (Homo sapiens (Human), UniProt P35462)
- PROTOCOL_NOTES: Test of binding inhibition for dopamine D3 receptor
- ASSAY_CONDITIONS: Jump-In HEK cell membranes, 2 nM [3H]-Methylspiperone, 120 min at 25° C.; read-out: hD3_Ki
pKi: −log10 of the molar value.
MEASURED_PROPERTY: pKi

1) Cc1cc(CC(=O)N[C@H]2CC[C@H](CCN3CCC(c4nocc4C(C)(F)F)CC3)CC2)on1 : 9.16
2) Cc1ncc(CC(=O)N[C@H]2CC[C@H](CCN3CCN(c4nocc4C(C)(F)F)C(C)C3)CC2)s1 (stereo partly shown) : 9.82
3) Cn1cc2c(C(=O)N[C@H]3CC[C@H](CCN4CC=C(c5nocc5C(C)(F)F)CC4)CC3)cccc2n1 : 10.09
4) CC(=O)c1conc1C1=CCN(CC[C@H]2CC[C@H](NC(=O)c3cccc4nn(C)cc34)CC2)CC1 : 9.16

----------
- ASSAYED_TARGET: human recombinant D2 receptor (Homo sapiens (Human), UniProt P14416)
- Sequence (P14416 whole entry): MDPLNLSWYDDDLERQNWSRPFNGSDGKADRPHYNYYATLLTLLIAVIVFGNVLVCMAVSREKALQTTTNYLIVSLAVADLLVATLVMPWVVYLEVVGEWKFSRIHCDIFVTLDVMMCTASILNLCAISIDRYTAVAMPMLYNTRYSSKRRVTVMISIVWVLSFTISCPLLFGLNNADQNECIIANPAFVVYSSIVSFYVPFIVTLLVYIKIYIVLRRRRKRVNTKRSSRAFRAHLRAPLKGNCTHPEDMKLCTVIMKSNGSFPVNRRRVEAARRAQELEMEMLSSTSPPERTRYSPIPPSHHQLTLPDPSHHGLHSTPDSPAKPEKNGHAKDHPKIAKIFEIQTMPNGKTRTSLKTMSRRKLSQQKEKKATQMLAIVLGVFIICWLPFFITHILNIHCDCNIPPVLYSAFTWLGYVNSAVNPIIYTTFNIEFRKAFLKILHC
- PROTOCOL_NOTES: Test of binding inhibition for dopamine D2 receptor
- ASSAY_CONDITIONS: Jump-In HEK cell membranes, 1.2 nM [3H]-Methylspiperone, 120 min at 25° C.; read-out: hD2_Ki
pKi: −log10 of the molar value.
MEASURED_PROPERTY: pKi

1. Cn1cc2c(C(=O)N[C@H]3CC[C@H](CCN4CC5CC5(c5cc(C6CC6)on5)C4)CC3)cccc2n1 (stereo partly shown) : 6.42
2. O=C(N[C@H]1CC[C@H](CCN2CCC(c3conc3-c3ccccc3)CC2)CC1)c1cccc2ncccc12 : 6.07
3. CCC(F)(F)c1conc1C1(F)CCN(CC[C@H]2CC[C@H](NC(=O)Cc3cnc(C)s3)CC2)CC1 : 6.51
4. Cn1cc2c(C(=O)N[C@H]3CC[C@H](CCN4CC5CC5(c5cc(C(F)F)on5)C4)CC3)cccc2n1 (stereo partly shown) : 6.70
5. Cc1ncc(CC(=O)N[C@H]2CC[C@H](CCN3CCC(c4noc(C)c4C(C)(F)F)CC3)CC2)s1 : 6.48
6. Cc1ncc(OCC(=O)N[C@H]2CC[C@H](CCN3C[C@@H]4C[C@]4(c4cc(C5CC5)on4)C3)CC2)cn1 : 6.14
7. CCc1cc([C@]23C[C@H]2CN(CC[C@H]2CC[C@H](NC(=O)c4cccnc4C)CC2)C3)no1 : 6.28
8. Cc1cc(CC(=O)N[C@H]2CC[C@H](CCN3C[C@@H]4C[C@]4(c4cc(C(C)(F)F)on4)C3)CC2)on1 : 5.89
9. CCc1cc([C@]23C[C@H]2CN(CC[C@H]2CC[C@H](NC(=O)COc4cnn(C)c4)CC2)C3)no1 : 6.26
10. CCc1cc(C23CC2CN(CC[C@H]2CC[C@H](NC(=O)c4cccc5nn(C)cc45)CC2)C3)no1 (stereo partly shown) : 6.14
11. O=C(N[C@H]1CC[C@H](CCN2CCC(c3nocc3C3CC3)CC2)CC1)c1cccc2ncccc12 : 6.80
12. Cc1ncc(CC(=O)N[C@H]2CC[C@H](CCN3C[C@@H]4C[C@]4(c4cc(C(C)(F)F)on4)C3)CC2)o1 : 6.62
13. Cc1ncc(CC(=O)N[C@H]2CC[C@H](CCN3CCC(c4nocc4C4CC4)CC3)CC2)s1 : 6.64
14. Cn1cc2c(C(=O)NN3CCC(CCN4C[C@@H]5C[C@]5(c5cc(C(C)(F)F)on5)C4)CC3)cccc2n1 : 6.06
15. Cc1ncc(CC(=O)N[C@H]2CC[C@H](CCN3CCC(c4nocc4C(C)(F)F)CC3)CC2)s1 : 6.64
16. CCc1cc([C@]23C[C@H]2CN(CC[C@H]2CC[C@H](NC(=O)Cc4cnn(C)n4)CC2)C3)no1 : 5.96

----------
- ASSAYED_TARGET: human recombinant D2 receptor (Homo sapiens (Human), UniProt P14416)
- PROTOCOL_NOTES: Test of binding inhibition for dopamine D2 receptor
- ASSAY_CONDITIONS: Jump-In HEK cell membranes, 1.2 nM [3H]-Methylspiperone, 120 min at 25° C.; read-out: hD2_Ki
MEASURED_PROPERTY: Ki

1) Cn1cc2c(C(=O)N[C@H]3CC[C@H](CCN4C[C@@H]5C[C@]5(c5cc(C(C)(F)F)on5)C4)CC3)cccc2n1 : > 1800 nM
2) Cc1cc(C23CC2CN(CC[C@H]2CC[C@H](NC(=O)c4cccc5nn(C)cc45)CC2)C3)no1 (stereo partly drawn) : > 1800 nM
3) Cn1cc2c(C(=O)N[C@H]3CC[C@](F)(CCN4C[C@@H]5C[C@]5(c5cc(C(C)(F)F)on5)C4)CC3)cccc2n1 : > 2300 nM
